Entries and their measured response follow.
target: T1, FAM-tagged two-repeat non-phosphorylated CTD peptide
T1 chain: YSPTSPSYSPTSPS
assayInfo: fluorescence anisotropy (FA)
conditionsUsed: chain shown with the change; read at the highest titration point, Seb1-CID 500 µM; parent: est. 44; read off a plot
assayReadout: response

{"binder": "Seb1-CID(1-152), Q9UTE3 K121E (protein) MSGIAEFDGILDSLEHSKTGISGSKILKLTNLSMENVSENAQFVASVYKYAKRAPVTHKLGALYILDSIVRSFQDGAKKNNESFENPVDASFSGGWCKAAEITDSLVADAIQHAPSAHLPEILKLCDIWEKASTFPPEKLESLRSKLKDAMA", "assayReadout": "response", "assayResult": 34}
{"binder": "Seb1-CID(1-152), Q9UTE3 Y64K (protein) MSGIAEFDGILDSLEHSKTGISGSKILKLTNLSMENVSENAQFVASVYKYAKRAPVTHKLGALKILDSIVRSFQDGAKKNNESFENPVDASFSGGWCKAAEITDSLVADAIQHAPSAHLPKILKLCDIWEKASTFPPEKLESLRSKLKDAMA", "assayReadout": "response", "assayResult": 20}
{"binder": "Seb1-CID(1-152), Q9UTE3 S22D; K25E; K124E (protein) MSGIAEFDGILDSLEHSKTGIDGSEILKLTNLSMENVSENAQFVASVYKYAKRAPVTHKLGALYILDSIVRSFQDGAKKNNESFENPVDASFSGGWCKAAEITDSLVADAIQHAPSAHLPKILELCDIWEKASTFPPEKLESLRSKLKDAMA", "assayReadout": "response", "assayResult": 33}
{"binder": "Seb1-CID(1-152), Q9UTE3 S22D; K25E (protein) MSGIAEFDGILDSLEHSKTGIDGSEILKLTNLSMENVSENAQFVASVYKYAKRAPVTHKLGALYILDSIVRSFQDGAKKNNESFENPVDASFSGGWCKAAEITDSLVADAIQHAPSAHLPKILKLCDIWEKASTFPPEKLESLRSKLKDAMA", "assayReadout": "response", "assayResult": 28}
{"binder": "Seb1-CID(1-152), Q9UTE3 K124E (protein) MSGIAEFDGILDSLEHSKTGISGSKILKLTNLSMENVSENAQFVASVYKYAKRAPVTHKLGALYILDSIVRSFQDGAKKNNESFENPVDASFSGGWCKAAEITDSLVADAIQHAPSAHLPKILELCDIWEKASTFPPEKLESLRSKLKDAMA", "assayReadout": "response", "assayResult": 56}
